experiment-summary: Peptide stability in a human colon model (pooled human faecal slurry, anaerobic)
Type: in vitro ADME
run-conditions: human, human colon model (pooled human faecal slurry, anaerobic), HCM, after 1.5 h incubation, 1 mg/mL, n = 3; read-out: peptide remaining intact (of starting concentration)
readout-name: remaining at 1.5 h, 1 mg/mL (%)

{"columns": ["compound", "remaining at 1.5 h, 1 mg/mL / %"],
 "data": [
  ["CC[C@H](C)[C@@H]1NC(=O)[C@H](Cc2ccc(O)cc2)NC(=O)[C@@H](N)CSSC[C@@H](C(=O)N2CCC[C@H]2C(=O)N[C@@H](CC(C)C)C(=O)NCC(N)=O)NC(=O)[C@H](CC(N)=O)NC(=O)[C@H](CCC(N)=O)NC1=O [Oxytocin, oxytocin, reference compound]", 6]
]}

a: CC[C@@H](C)[C@H]1NC(=O)[C@@H](Cc2ccc(O)cc2)NC(=O)[C@@H](N)CSSC[C@@H](C(=O)N2CCC[C@H]2C(=O)N[C@@H](CC(C)C)C(=O)NCC(N)=O)NC(=O)[C@H](CC(N)=O)NC(=O)[C@H](CCC(N)=O)NC1=O [Peptide P8]
b: CC[C@@H](C)[C@H]1NC(=O)[C@@H](Cc2ccc(O)cc2)NC(=O)[C@@H](N)CSSC[C@@H](C(=O)N2CCC[C@H]2C(=O)N[C@H](CC(C)C)C(=O)NCC(N)=O)NC(=O)[C@H](CC(N)=O)NC(=O)[C@H](CCC(N)=O)NC1=O [Peptide P4]
Looking only at measured remaining at 1.5 h, 1 mg/mL, which entry is lower, a or b ? Choose, then provide that item's label.
a
(a: 3.7%, b: 85.1%)
